study-target: T1, BSA (UniProt P02769 25-607)
T1 construct: also called control protein
T1 sequence (P02769 25-607 limits assumed): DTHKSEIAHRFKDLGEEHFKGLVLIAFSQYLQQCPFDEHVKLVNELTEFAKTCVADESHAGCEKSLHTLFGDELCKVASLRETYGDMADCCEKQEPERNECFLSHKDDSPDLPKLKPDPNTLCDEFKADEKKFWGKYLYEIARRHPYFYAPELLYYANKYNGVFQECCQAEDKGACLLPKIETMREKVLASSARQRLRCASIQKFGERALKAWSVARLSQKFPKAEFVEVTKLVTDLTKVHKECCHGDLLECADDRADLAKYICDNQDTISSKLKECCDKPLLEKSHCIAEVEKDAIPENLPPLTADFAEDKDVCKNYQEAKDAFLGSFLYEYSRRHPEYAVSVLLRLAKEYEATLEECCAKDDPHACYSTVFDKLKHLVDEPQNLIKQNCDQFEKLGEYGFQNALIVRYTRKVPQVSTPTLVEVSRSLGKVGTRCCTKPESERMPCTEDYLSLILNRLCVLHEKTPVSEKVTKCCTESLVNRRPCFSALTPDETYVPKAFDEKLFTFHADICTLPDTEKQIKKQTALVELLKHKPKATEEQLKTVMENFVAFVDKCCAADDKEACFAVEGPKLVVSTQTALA
assay-overview: ELISA, 1 µg/ml coated BSA, 1 µg/ml VHH-hFc

binder | binding result
7A5 VHH-hFc (Fc fusion, also called NCI-CoV-7A5 VHH-hFc fusion protein) AVQLVESGGGLVQPGGSLRLSCAASGFTFSSYYMSWVRQAPGKGLEWVSTINSRGSSTYYADSVKGRFTISRDNAKNTLYLQMSSLKSEDTALYYCAIGRLYSVKGQGTQVTVSS | binds
